Exercise: for every item that follows, state its recorded Pre-emergence efficacy against VERPE in %.
Tested on: Veronica persica (VERPE)
Assay: A. Herbicidal pre-emergence efficacy, VERPE
Type: in vivo
Settings: 1280 g/ha
Just the number in %, nothing appended.

# Pre-emergence efficacy against VERPE in % of O=S(=O)(CCCC(F)(F)F)Oc1c(F)cccc1Oc1ncc(Cl)cn1 = 100

# Pre-emergence efficacy against VERPE in % of O=S(=O)(CCCCl)Oc1ccccc1Oc1ncc(Cl)cc1F = 100

# Pre-emergence efficacy against VERPE in % of O=S(=O)(CCCC(F)(F)F)Oc1ccccc1Oc1ccc(Cl)cn1 = 100

# Pre-emergence efficacy against VERPE in % of Cc1cccc(Oc2ncc(Br)cn2)c1OS(=O)(=O)CCCC(F)(F)F = 100

# Pre-emergence efficacy against VERPE in % of O=S(=O)(CCCCl)Oc1ccccc1Oc1ncc(Cl)cn1 = 100

# Pre-emergence efficacy against VERPE in % of O=S(=O)(CCCCl)Oc1ccccc1Oc1ccc(Cl)cn1 = 90

# Pre-emergence efficacy against VERPE in % of CC(C)S(=O)(=O)Oc1ccccc1Oc1ncc(Cl)cn1 = 100

# Pre-emergence efficacy against VERPE in % of Cc1cccc(Oc2ncc(Cl)cn2)c1OS(=O)(=O)CC1CC(F)(F)C1 = 100

# Pre-emergence efficacy against VERPE in % of O=S(=O)(CCC1CC1)Oc1c(F)cccc1Oc1ncc(Cl)cn1 = 100

# Pre-emergence efficacy against VERPE in % of CCC(C)S(=O)(=O)Oc1ccccc1Oc1ncc(Cl)cn1 (stereo not shown) = 90

# Pre-emergence efficacy against VERPE in % of O=S(=O)(CCC(F)=C(F)F)Oc1c(Br)cccc1Oc1ncc(Cl)cn1 = 90

# Pre-emergence efficacy against VERPE in % of Cc1cccc(Oc2ncc(Cl)cn2)c1OS(=O)(=O)CCCC(F)(F)F = 100

# Pre-emergence efficacy against VERPE in % of O=S(=O)(CCCCl)Oc1c(F)cccc1Oc1ncc(Cl)cn1 = 100
